Hello, the source for this data is the NIST ThermoML archive (doi:10.1016/j.jct.2011.06.007), in case you need it.

# experiment_notes: activity coefficient (dimensionless); of the first substance listed, at infinite dilution; xn = mol fraction of the nth substance listed
# setup_conditions: 328.15 K; 101 kPa; Liquid; Chromatography; x1 = 0
Labelling field: enter Criterion met if recorded activity coefficient is less than 6. Enter Criterion not met if it equals or exceeds that cut-off.

// known answers, use as guide
- compound: "CCCCCCC [heptane] + CCCC[N+]1(C)CCCC1.N#C[B-](C#N)(C#N)C#N"
  group_label: "Criterion not met"
- compound: "C1CCCCCC1 [cycloheptane] + CCCC[N+]1(C)CCCC1.N#C[B-](C#N)(C#N)C#N"
  group_label: "Criterion not met"
- compound: "c1ccsc1 [thiophene] + CCCC[N+]1(C)CCCC1.N#C[B-](C#N)(C#N)C#N"
  group_label: "Criterion met"
- compound: "CC(C)=O [acetone] + CCCC[N+]1(C)CCCC1.N#C[B-](C#N)(C#N)C#N"
  group_label: "Criterion met"
- compound: "C1CCOC1 [tetrahydrofuran] + CCCC[N+]1(C)CCCC1.N#C[B-](C#N)(C#N)C#N"
  group_label: "Criterion met"
- compound: "CO [methanol] + CCCC[N+]1(C)CCCC1.N#C[B-](C#N)(C#N)C#N"
  group_label: "Criterion met"
- compound: "CCCCCCCC [octane] + CCCC[N+]1(C)CCCC1.N#C[B-](C#N)(C#N)C#N"
  group_label: "Criterion not met"
- compound: "CC(C)CC(C)(C)C [2,2,4-trimethylpentane] + CCCC[N+]1(C)CCCC1.N#C[B-](C#N)(C#N)C#N"
  group_label: "Criterion not met"

Enquiry: Lab note: confirm whether the reported activity coefficient for this compound is below 6, equality not counting. compound: CCOCC [diethyl ether] + CCCC[N+]1(C)CCCC1.N#C[B-](C#N)(C#N)C#N
Return: Criterion met

Enquiry: Lab note: confirm whether the reported activity coefficient for this compound is below 6, equality not counting. compound: CCCCCCCCCC [decane] + CCCC[N+]1(C)CCCC1.N#C[B-](C#N)(C#N)C#N
Return: Criterion not met

Enquiry: Lab note: confirm whether the reported activity coefficient for this compound is below 6, equality not counting. compound: CCC(C)(C)OC [2-methoxy-2-methylbutane] + CCCC[N+]1(C)CCCC1.N#C[B-](C#N)(C#N)C#N
Return: Criterion met

Enquiry: Lab note: confirm whether the reported activity coefficient for this compound is below 6, equality not counting. compound: CCCCC [pentane] + CCCC[N+]1(C)CCCC1.N#C[B-](C#N)(C#N)C#N
Return: Criterion not met

Enquiry: Lab note: confirm whether the reported activity coefficient for this compound is below 6, equality not counting. compound: C#CCCCCCC [1-octyne] + CCCC[N+]1(C)CCCC1.N#C[B-](C#N)(C#N)C#N
Return: Criterion met

Enquiry: Lab note: confirm whether the reported activity coefficient for this compound is below 6, equality not counting. compound: CCCCO [butan-1-ol] + CCCC[N+]1(C)CCCC1.N#C[B-](C#N)(C#N)C#N
Return: Criterion met

Enquiry: Lab note: confirm whether the reported activity coefficient for this compound is below 6, equality not counting. compound: CCC(=O)CC [pentan-3-one] + CCCC[N+]1(C)CCCC1.N#C[B-](C#N)(C#N)C#N
Return: Criterion met

Enquiry: Lab note: confirm whether the reported activity coefficient for this compound is below 6, equality not counting. compound: C1=CCCCC1 [cyclohexene] + CCCC[N+]1(C)CCCC1.N#C[B-](C#N)(C#N)C#N
Return: Criterion met

Enquiry: Lab note: confirm whether the reported activity coefficient for this compound is below 6, equality not counting. compound: C#CCCCC [1-hexyne] + CCCC[N+]1(C)CCCC1.N#C[B-](C#N)(C#N)C#N
Return: Criterion met

Enquiry: Lab note: confirm whether the reported activity coefficient for this compound is below 6, equality not counting. compound: C=CCCCC [hex-1-ene] + CCCC[N+]1(C)CCCC1.N#C[B-](C#N)(C#N)C#N
Return: Criterion not met
